Exercise: state measured half-life at 2 μM for each of the molecules provided.
Protocol text: Stability in simulated intestinal fluid
Format: in vitro ADME
Run parameters: 2 μM peptidomimetic, simulated intestinal fluid pH 7.5, 37° C.; read-out: half-life (t1/2) when incubated with simulated intestinal fluid

Guide cases for half-life at 2 μM, answers given:
Molecule: CCc1cc(OC)ccc1-c1ccc(CC(NC(=O)[C@H](CC(=O)O)NC(=O)[C@H](CO)NC(=O)[C@@H](NC(=O)[C@H](Cc2ccccc2)NC(=O)[C@@H](NC(=O)CNC(=O)C(CCC#N)NC(=O)C(C)(C)NC(=O)[C@@H](N)Cc2c[nH]cn2)[C@@H](C)O)[C@@H](C)O)C(=O)NC(CCCc2ccc(F)cc2C(F)(F)F)C(N)=O)cc1 (single isomer, unassigned)
half-life at 2 μM: 0.5 h
//
Molecule: CCc1cc(OC)ccc1-c1ccc(CC(CNC(CCCc2ccccc2)C(N)=O)NC[C@H](CC(=O)O)NC(=O)[C@H](CO)NC(=O)[C@@H](NC(=O)C(C)(Cc2ccccc2F)NC(=O)[C@@H](NC(=O)CNC(=O)C(CCC#N)NC(=O)C(C)(C)NC(=O)[C@@H](N)Cc2c[nH]cn2)[C@H](C)O)[C@H](C)O)cc1 (single isomer, unassigned)
half-life at 2 μM: > 24 h
//
Molecule: CCc1cc(OC)ccc1-c1ccc(CC(NC(=O)[C@H](CC(=O)O)NC(=O)[C@H](CO)NC(=O)[C@@H](NC(=O)C(C)(Cc2ccccc2F)NC(=O)[C@@H](NC(=O)CNC(=O)[C@H](CC(C(F)(F)F)C(F)(F)F)NC(=O)C(C)(C)NC(=O)[C@@H](N)Cc2c[nH]cn2)[C@H](C)O)[C@H](C)O)C(=O)NC(CCCc2ccccc2F)C(N)=O)cc1 (stereo partly drawn)
half-life at 2 μM: 0.5 h
//
Molecule: CCc1cc(OC)ccc1-c1ccc(CC(NC(=O)[C@H](CC(=O)O)NC(=O)[C@H](CO)NC(=O)[C@@H](NC(=O)C(C)(Cc2ccccc2F)NC(=O)[C@@H](NC(=O)CNC(=O)C(CCC#N)NC(=O)C(C)(C)NC(=O)[C@H](Cc2c[nH]cn2)NC(C)=O)[C@@H](C)O)[C@@H](C)O)C(=O)NC(CCCc2ccccc2)C(N)=O)cc1 (single isomer, unassigned)
half-life at 2 μM: > 24 h
//
Molecule: CCc1cc(OC)ccc1-c1ccc(CC(NC(=O)[C@H](CC(=O)O)NC(=O)[C@H](CO)NC(=O)[C@@H](NC(=O)C(C)(Cc2ccccc2F)NC(=O)[C@@H](NC(=O)CNC(=O)C(CCC#N)NC(=O)C(C)(C)NC(=O)[C@@H](N)Cc2c[nH]cn2)[C@H](C)O)[C@H](C)O)C(=O)NC(CCCc2ccccc2)C(N)=O)cc1 (single isomer, unassigned)
half-life at 2 μM: > 24 h

Next molecule, half-life at 2 μM to be filled in.
Problem: Indicate its recorded half-life at 2 μM; the molecule in question is CCc1cc(OC)ccc1-c1ccc(CC(NC(=S)[C@H](CC(=O)O)NC(=O)[C@H](CO)NC(=O)[C@@H](NC(=O)C(C)(Cc2ccccc2F)NC(=O)[C@@H](NC(=O)CNC(=O)C(CCC#N)NC(=O)C(C)(C)NC(=O)[C@@H](N)Cc2c[nH]cn2)[C@H](C)O)[C@H](C)O)C(=S)NC(CCCc2ccccc2)C(N)=O)cc1 (single isomer, unassigned)
Solution: > 24 h

* * *

Exercise: state measured % degradation of peptidomimetics in 24 h when incubated with simulated intestinal fluid for each of the compounds provided.
Protocol text: Stability in simulated intestinal fluid
Assay type: in vitro ADME
Run parameters: 2 μM peptidomimetic, simulated intestinal fluid pH 7.5, 37° C., 24 h
Give bare numbers, in %.

Guide cases for % degradation of peptidomimetics in 24 h when incubated with simulated intestinal fluid, answers given:
Compound: CCc1cc(OC)ccc1-c1ccc(CC(CNC(CCCc2ccccc2)C(N)=O)NC(=O)[C@H](CC(=O)O)NC(=O)[C@H](CO)NC(=O)[C@@H](NC(=O)C(C)(Cc2ccccc2F)NC(=O)[C@@H](NC(=O)CNC(=O)[C@H](CC(C(F)(F)F)C(F)(F)F)NC(=O)C(C)(C)NC(=O)[C@@H](N)Cc2c[nH]cn2)[C@H](C)O)[C@H](C)O)cc1 (some centres unmarked) [compound 215]
Value measured: 00

Compound: CCc1cc(OC)ccc1-c1ccc(CC(NC(=O)[C@H](CC(=O)O)NC(=O)[C@H](CO)NC(=O)[C@@H](NC(=O)C(C)(Cc2ccccc2F)NC(=O)[C@@H](NC(=O)CNC(=O)[C@H](CC(C(F)(F)F)C(F)(F)F)NC(=O)C(C)(C)NC(=O)[C@@H](N)Cc2c[nH]cn2)[C@H](C)O)[C@@H](C)O)C(=O)NC(CCCc2ccccc2)C(N)=O)cc1 (some centres unmarked) [compound 226]
Value measured: 100

Compound: CCc1cc(OC)ccc1-c1ccc(CC(CNC(CCCc2ccccc2)C(N)=O)NC[C@H](CC(=O)O)NC(=O)[C@H](CO)NC(=O)[C@@H](NC(=O)C(C)(Cc2ccccc2F)NC(=O)[C@@H](NC(=O)CNC(=O)C(CCC#N)NC(=O)C(C)(C)NC(=O)[C@@H](N)Cc2c[nH]cn2)[C@H](C)O)[C@H](C)O)cc1 (single isomer, unassigned) [compound 202]
Value measured: 00

Compound: CCc1cc(OC)ccc1-c1ccc(CC(NC(=O)[C@H](CC(=O)O)NC(=O)[C@H](CO)NC(=O)[C@@H](NC(=O)C(C)(Cc2ccccc2F)NC(=O)[C@@H](NC(=O)CNC(=O)C(CCC#N)NC(=O)C(C)(C)NC(=O)[C@@H](N)Cc2c[nH]cn2)[C@H](C)O)[C@H](C)O)C(=O)N(C)C(CCCc2ccccc2F)C(N)=O)cc1 (single isomer, unassigned) [compound 132]
Value measured: 45

Compound: CCc1cc(OC)ccc1-c1ccc(CC(NC(=O)[C@H](CC(=O)O)NC(=O)[C@H](CO)NC(=O)[C@@H](NC(=O)[C@H](Cc2ccccc2)NC(=O)[C@@H](NC(=O)CNC(=O)[C@H](CCC(N)=O)NC(=O)[C@H](CO)NC(=O)[C@@H](N)Cc2c[nH]cn2)[C@@H](C)O)[C@@H](C)O)C(=O)NC(CCCc2ccccc2F)C(N)=O)cc1 (single isomer, unassigned) [compound 45]
Value measured: 100

Compound: CCc1cc(OC)ccc1-c1ccc(CC(NC(=O)[C@H](CC(=O)O)NC(=O)[C@H](CO)NC(=O)[C@@H](NC(=O)[C@H](Cc2ccccc2)NC(=O)[C@@H](NC(=O)CNC(=O)[C@H](CCC(N)=O)NC(=O)C2(NC(=O)[C@@H](N)Cc3c[nH]cn3)CC2)[C@@H](C)O)[C@@H](C)O)C(=O)NC(CCCc2ccc(F)cc2C(F)(F)F)C(N)=O)cc1 (single isomer, unassigned) [compound 72]
Value measured: 41

For each listed entry, give its % degradation of peptidomimetics in 24 h when incubated with simulated intestinal fluid.
1. CCc1cc(OC)ccc1-c1ccc(CC(NC(=O)[C@H](CC(=O)O)NC(=O)[C@H](CO)NC(=O)[C@@H](NC(=O)C(C)(Cc2ccccc2F)NC(=O)[C@@H](NC(=O)CNC(=O)[C@H](CC(C(F)(F)F)C(F)(F)F)NC(=O)C(C)(C)NC(=O)[C@@H](N)Cc2c[nH]cn2)[C@@H](C)O)[C@@H](C)O)C(=O)NC(CCCc2ccccc2)C(N)=O)cc1 (some centres unmarked) [compound 234]
2. CCc1cc(OC)ccc1-c1ccc(CC(NC(=O)[C@H](CC(=O)O)NC(=O)[C@H](CO)NC(=O)[C@@H](NC(=O)C(C)(Cc2ccccc2F)NC(=O)[C@@H](NC(=O)CNC(=O)C(CCC#N)NC(=O)C(C)(C)NC(=O)[C@H](Cc2c[nH]cn2)NC(C)=O)[C@@H](C)O)[C@@H](C)O)C(=O)NC(CCCc2ccccc2F)C(N)=O)cc1 (single isomer, unassigned) [compound 207]
3. CCc1cc(OC)ccc1-c1ccc(CC(NC(=O)[C@H](CC(=O)O)NC(=O)[C@H](CO)NC(=O)[C@@H](NC(=O)C(C)(Cc2ccccc2F)NC(=O)[C@@H](NC(=O)CNC(=O)C(CCC#N)NC(=O)C(C)(C)NC(=O)[C@H](Cc2c[nH]cn2)NC(=O)OC)[C@@H](C)O)[C@@H](C)O)C(=O)NC(CCCc2ccccc2F)C(N)=O)cc1 (single isomer, unassigned) [compound 208]
4. CCc1cc(OC)ccc1-c1ccc(CC(NC(=O)[C@H](CC(=O)O)NC(=O)[C@H](CO)NC(=O)[C@@H](NC(=O)C(C)(Cc2ccccc2F)NC(=O)[C@@H](NC(=O)CNC(=O)C(CCC#N)NC(=O)C(C)(C)NC(=O)[C@@H](N)Cc2c[nH]cn2)[C@H](C)O)[C@H](C)O)C(=S)NC(CCCc2ccccc2)C(N)=O)cc1 (single isomer, unassigned) [compound 166]
5. CCc1cc(OC)ccc1-c1ccc(CC(NC(=O)[C@H](CC(=O)O)NC(=O)[C@H](CO)NC(=O)[C@@H](NC(=O)[C@H](Cc2ccccc2)NC(=O)[C@@H](NC(=O)CNC(=O)[C@H](CCC(N)=O)NC(=O)[C@H](CO)NC(=O)[C@@H](N)Cc2c[nH]cn2)[C@@H](C)O)[C@@H](C)O)C(=O)NC(CCCc2ccccc2Cl)C(N)=O)cc1 (single isomer, unassigned) [compound 50]

Solution:
100
00
100
41
50
